src = ChEMBL document CHEMBL1149303

- study-system: Prostaglandin G/H synthase 1 (Homo sapiens)
- Sequence (P23219 whole entry): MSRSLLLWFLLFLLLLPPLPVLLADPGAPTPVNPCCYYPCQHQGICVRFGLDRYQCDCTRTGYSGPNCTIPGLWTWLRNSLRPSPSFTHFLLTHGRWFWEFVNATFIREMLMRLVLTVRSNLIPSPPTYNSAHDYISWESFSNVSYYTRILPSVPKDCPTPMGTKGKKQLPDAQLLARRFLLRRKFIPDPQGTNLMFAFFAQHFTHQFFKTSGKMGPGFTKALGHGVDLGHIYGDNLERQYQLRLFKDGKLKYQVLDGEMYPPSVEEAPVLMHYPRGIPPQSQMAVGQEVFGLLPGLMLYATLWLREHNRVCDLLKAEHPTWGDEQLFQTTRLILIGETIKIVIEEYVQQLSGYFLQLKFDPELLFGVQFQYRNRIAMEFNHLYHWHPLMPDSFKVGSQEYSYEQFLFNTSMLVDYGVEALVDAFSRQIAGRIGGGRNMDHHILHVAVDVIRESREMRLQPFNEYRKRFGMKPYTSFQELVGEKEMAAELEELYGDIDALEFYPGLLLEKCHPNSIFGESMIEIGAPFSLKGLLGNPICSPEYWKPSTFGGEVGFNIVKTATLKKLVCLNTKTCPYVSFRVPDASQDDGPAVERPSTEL
pIC50: −log10 of the molar value.
Response key: true means pIC50 >= 6; false means pIC50 < 6.

| substance-smiles | classification |
| --- | --- |
| O=S(=O)(Nc1ccncc1Oc1ccc(Br)cc1)C(F)(F)F | true |
| CS(=O)(=O)Nc1ccncc1Sc1ccccc1 | false |
| CS(=O)(=O)Nc1ccncc1S(=O)(=O)c1ccccc1 | false |
| CCS(=O)(=O)Nc1ccncc1Oc1ccc(Cl)cc1 | false |
| O=S(=O)(Nc1ccncc1Sc1ccccc1)C(F)(F)F | true |
| CS(=O)(=O)Nc1ccncc1Oc1ccc(Cl)cc1Cl | true |
| O=S(=O)(Nc1ccncc1Nc1ccccc1)C(F)(F)F | true |
| CCCS(=O)(=O)Nc1ccncc1Oc1ccc(Cl)cc1 | false |
| O=S(=O)(c1ccccc1)c1cnccc1NS(=O)(=O)C(F)(F)F | false |
